Study system: T1, Recombinant Human IL-1α (human, UniProt P01583 113-271)
T1 construct: Bought recombinant protein; Biotinylated in the capture ELISA; also called hIL-1α; IL-1 alpha
T1 sequence (looked up): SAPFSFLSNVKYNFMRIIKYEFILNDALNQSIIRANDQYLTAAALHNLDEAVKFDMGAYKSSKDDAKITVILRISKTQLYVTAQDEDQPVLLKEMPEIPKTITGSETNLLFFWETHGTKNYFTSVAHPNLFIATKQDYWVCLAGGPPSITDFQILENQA
Protocol: SPR (BIACORE), human antigen
Protocol: The BIACORE assay (Biacore, Inc, Piscataway, N.J.) determines the affinity of antibodies or DVD-Ig molecule with kinetic measurements of on-rate and off-rate constants. […] The association and dissociation rate constants, kₒₙ (M⁻¹s⁻¹) and koff (s⁻¹) are determined under a continuous flow rate of 25 μl/minute. […] Binding is recorded as a function of time and kinetic rate constants are calculated.
Reported metric: koff (s⁻¹)
Give just the number in s⁻¹; leave the unit off.

Using the record for 3D12.16 (antibody, human IgG1, kappa, L234A L235A, V domains shown, Parent anti-IL-1α antibody; also called 3D12.16VH; 3D12.16VL) VH: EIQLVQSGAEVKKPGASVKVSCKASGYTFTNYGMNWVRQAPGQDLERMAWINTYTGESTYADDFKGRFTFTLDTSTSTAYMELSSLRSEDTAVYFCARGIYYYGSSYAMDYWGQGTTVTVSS VL: DIQMTQSPSSLSASVGDRVTITCRASQDISNCLNWYQQKPGKTPKLLIYYTSRLHSGVPSRFSGSGSGTDYTFTISSLQPEDIATYFCQQGKTLPYAFGQGTKLEIKR , report its koff.
0.00253

Param item = 3D12r16 (antibody, human IgG1, kappa, L234A L235A, V domains shown, Parent anti-IL-1α antibody; also called 3D12r16VH; 3D12r16VL) VH: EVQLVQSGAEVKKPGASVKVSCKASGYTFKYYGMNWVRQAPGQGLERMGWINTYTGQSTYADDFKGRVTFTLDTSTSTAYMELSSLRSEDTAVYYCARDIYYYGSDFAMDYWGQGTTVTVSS VL: DIQMTQSPSSLSASVGDRVTITCRASQDISNMLNWYQQKPGKAPKLLIYYTSRLKPGVPSRFSGSGSGTDYTFTISSLQPEDIATYFCQQGKTAPYTFGQGTKLEIKR ; retrieve measured koff.
2.77e-05

Look up koff: 3D12.8 (antibody, human IgG1, kappa, L234A L235A, V domains shown, Parent anti-IL-1α antibody; also called 3D12.8VH; 3D12.8VL) VH: EIQLVQSGSELKKPGASVKVSCKASGYTFTNYGMNWVRQAPGQDLERMAWINTYTGESTYADDFKGRFVFSLDTSVSTAYLQISSLKAEDTAVYFCARGIYYYGSSYAMDYWGQGTTVTVSS VL: DIQMTQSPSSLSASVGDRVTITCRASQDISNCLNWYQQKPGKTPKLLIYYTSRLHSGVPSRFSGSGSGTDYTFTISSLQPEDIATYFCQQGKTLPYAFGQGTKLEIKR
0.00274

Entry 3D12.10/15 (antibody, human IgG1, kappa, L234A L235A, V domains shown, Parent anti-IL-1α antibody; also called 3D12 10/15VH; 3D12 10/15VL) VH: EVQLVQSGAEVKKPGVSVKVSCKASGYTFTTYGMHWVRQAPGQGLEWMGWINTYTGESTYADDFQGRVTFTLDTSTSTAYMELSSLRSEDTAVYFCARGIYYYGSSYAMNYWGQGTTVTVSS VL: DIQMTQSPSSLSASVGDRVTITCRASQDISNMLNWYQQKPGKTPKLLIYYTSRLYPGVPSRFSGSGSGTDYTFTISSLQPEDIATYFCQQGKTLPYAFGQGTKLEIKR : reported koff = ?
4.1e-05
